tested on: A549/ATCC; experiment: NCI60 five-dose screen; type: cell-based; conditions: Homo sapiens, Non-small-Cell Lung Cancer
propertyLabel: GI50 (nM)

> print(dat)
                                   compound  propertylabel  unitannotation  reportedvalue
1  COc1ccc([P+](CCCCOc2cc(O)c3c(=O)cc(-c4ccccc4)oc3c2)(c2ccc(OC)cc2)c2ccc(OC)cc2)cc1 [3c]           GI50              nM            600
2  O=c1cc(-c2ccccc2)oc2cc(OCCCC[P+](c3ccccc3)(c3ccccc3)c3ccccn3)cc(O)c12 [3h]           GI50              nM           1130
3  Cc1ccc([P+](CCCCOc2cc(O)c3c(=O)cc(-c4ccccc4)oc3c2)(c2ccc(C)cc2)c2ccc(C)cc2)cc1 [3b]           GI50              nM            393
4  COc1c(C)cc([P+](CCCCOc2cc(O)c3c(=O)cc(-c4ccccc4)oc3c2)(c2cc(C)c(OC)c(C)c2)c2cc(C)c(OC)c(C)c2)cc1C [3f]           GI50              nM            314

----------
tested on: HT29; assay: NCI60 one-dose screen; assay type: cell-based; details: Homo sapiens, HT-29; HT29, 10 μM; read-out: Growth percent
Give class 1 when the value for activity at 10 µM is at least -70%. Give class 0 when it is less.

> print(dat)
                                givensmiles  discretelabel
1  O=c1cc(-c2ccccc2)oc2cc(OCCCC[P+](C3CCCCC3)(C3CCCCC3)C3CCCCC3)cc(O)c12        class 0
2  O=c1cc(-c2ccccc2)oc2cc(OCCCC[P+](c3ccccc3)(c3ccccc3)c3ccccn3)cc(O)c12        class 1
3  Cc1ccc([P+](CCCCOc2cc(O)c3c(=O)cc(-c4ccccc4)oc3c2)(c2ccc(C)cc2)c2ccc(C)cc2)cc1        class 1
4  Cc1ccccc1[P+](CCCCOc1cc(O)c2c(=O)cc(-c3ccccc3)oc2c1)(c1ccccc1C)c1ccccc1C        class 0

----------
system: HOP-62; assay: NCI60 one-dose screen; format: cell-based; conditions: Homo sapiens; HOP-62, 10 μM; read-out: Growth percent
In this section, each of the compounds is paired with its reported activity at 10 µM.
propertyLabel: activity at 10 µM (%)

> print(dat)
                                givensmiles  reportedvalue
1  O=c1cc(-c2ccccc2)oc2cc(OCCCC[P+](c3ccccc3)(c3ccccc3)c3ccccc3)cc(O)c12          -63.6
2  O=c1cc(-c2ccccc2)oc2cc(OCCCC[P+](C3CCCCC3)(C3CCCCC3)C3CCCCC3)cc(O)c12          -82.6
3  Cc1ccccc1[P+](CCCCOc1cc(O)c2c(=O)cc(-c3ccccc3)oc2c1)(c1ccccc1C)c1ccccc1C          -98.3
4  COc1c(C)cc([P+](CCCCOc2cc(O)c3c(=O)cc(-c4ccccc4)oc3c2)(c2cc(C)c(OC)c(C)c2)c2cc(C)c(OC)c(C)c2)cc1C          -25.2
5  O=c1cc(-c2ccccc2)oc2cc(OCCCC[P+](c3ccc(F)cc3)(c3ccc(F)cc3)c3ccc(F)cc3)cc(O)c12          -70.8
6  Cc1ccc([P+](CCCCOc2cc(O)c3c(=O)cc(-c4ccccc4)oc3c2)(c2ccc(C)cc2)c2ccc(C)cc2)cc1            -62

----------
test system: MDA-MB-468
In this section, each of the molecules is paired with its reported GI50.
propertyLabel: GI50 (nM)

> print(dat)
                                   molecule  propertylabel  reportedvalue
1  O=c1cc(-c2ccccc2)oc2cc(OCCCC[P+](C3CCCCC3)(C3CCCCC3)C3CCCCC3)cc(O)c12 [3e]           GI50            273
2  COc1c(C)cc([P+](CCCCOc2cc(O)c3c(=O)cc(-c4ccccc4)oc3c2)(c2cc(C)c(OC)c(C)c2)c2cc(C)c(OC)c(C)c2)cc1C [3f]           GI50             64
3  Cc1ccccc1[P+](CCCCOc1cc(O)c2c(=O)cc(-c3ccccc3)oc2c1)(c1ccccc1C)c1ccccc1C [3g]           GI50            148
